Each item that follows carries a reported protein stability index.
B1: C10orf62 (parent)
chain: MLWVQRKRRRKETSECPSDKDKSP

# Variants of: B1
# test_protocol: protein stability index of a GFP-peptide fusion (GPS, HEK-293T) (PSI 1-6); higher = more stable;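 note: lentivirally expressed fusions sorted by FACS into six bins by GFP to DsRed ratio, PSI derived from sequencing read proportions per bin multiplied by bin number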
# condition_info: c terminus: a fixed tail appended

IN: Bench note: what protein stability index did MLWVQRKRRRKETSECPSDKFKSP [D21F] show?
OUT: 2.4

IN: Please look up its protein stability index: MLWVQRKSRRKETSECPSDKDKSP [R8S]
OUT: 3.91

IN: Recorded protein stability index of MLWVQRKRLRKETSECPSDKDKSP [R9L] , please.
OUT: 3.08

All values here come from the supplement of paper PMC10567573.
